system: LOX IMVI; experiment: NCI tumour cell line growth inhibition, 48 h
The source made the active and inactive calls. Cut-off read from the data, not from the text of the source: active = GI50 up to about 1.1 µM and inactive = higher.

Molecule: Nc1nc(N)c2ncn(-c3ccc(Br)cc3)c2n1
Tested system: LOX IMVI
GI50: 27 µM (inactive)
--
Molecule: O=C(C#Cc1ccccc1)N1CCCCC1
Tested system: LOX IMVI
GI50: 48.9 µM (inactive)
--
Molecule: c1ccc(C2=Nc3nc4ccccc4n3C(c3ccccc3)C2)cc1 (stereo not given)
Tested system: LOX IMVI
GI50: > 100 µM (inactive)
--
Molecule: COc1ccc(C(=C(I)c2ccccc2)c2ccc(OC)cc2)cc1
Tested system: LOX IMVI
GI50: > 100 µM (inactive)
--
Molecule: CCCNC1=C2C[C@@H](C)C[C@@H](OC)[C@@H](OC(=O)CCCN)[C@H](C)/C=C(\C)[C@@H](OC(N)=O)[C@H](OC)/C=C\C=C(/C)C(=O)NC(=CC1=O)C2=O
Tested system: LOX IMVI
GI50: 16 µM (inactive)

###

test system: SK-MEL-5; test: NCI tumour cell line growth inhibition, 48 h
Active and inactive are the calls of the source. Rule as the data show it: active = GI50 up to about 1.1 µM and inactive = higher.
Outcomes: active, inactive

Compound: COc1ccc2[nH]c(C(=O)N3CC(CCl)c4c3cc(N)c3ccccc43)cc2c1 (stereo unspecified)
Tested system: SK-MEL-5
Class label: active
--
Compound: Cc1sc2nc3n(c(=O)c2c1C)N=C(c1ccccc1)CS3
Tested system: SK-MEL-5
Class label: inactive
--
Compound: OCCCNCC(O)c1ccc(OCc2ccccc2)c(OCc2ccccc2)c1 (stereo unspecified)
Tested system: SK-MEL-5
Class label: inactive
--
Compound: CC1=C2CCCC2=C/C(=N/Nc2ccc([N+](=O)[O-])cc2[N+](=O)[O-])CC1
Tested system: SK-MEL-5
Class label: inactive
--
Compound: [N-]=[N+]=NC1(c2ccccc2)C(=O)C(Cl)=C(c2ccccc2)N(c2ccccc2)C1=O (stereo unspecified)
Tested system: SK-MEL-5
Class label: inactive
--
Compound: CC(=O)N(C)OC(=O)CC(=O)c1ccccc1
Tested system: SK-MEL-5
Class label: inactive
--
Compound: Cc1nc2c(sc(=S)n2-c2ccccc2)c2nc3ncccc3n12
Tested system: SK-MEL-5
Class label: inactive
--
Compound: CCn1c2ccccc2c2nnc(NCCCO)nc21
Tested system: SK-MEL-5
Class label: inactive
--
Compound: O=C1NC(O)c2cc3ccccc3cc2O1 (stereo unspecified)
Tested system: SK-MEL-5
Class label: inactive
--
Compound: CCCCCCCCCCCCCCC(O)C1CCC(C(O)CCC(O)CCCCCC(O)CC2=CC(C)OC2=O)O1 (stereo unspecified)
Tested system: SK-MEL-5
Class label: active
--
Compound: CCOC(=O)C(=O)Nc1nc2c(OCC)cccc2s1
Tested system: SK-MEL-5
Class label: inactive

###

system: NCI-H460; assay: NCI tumour cell line growth inhibition, 48 h
Active and inactive are the calls of the source. No stated cut-off is given here; in the data, active = GI50 up to about 1.1 µM and inactive = higher.

Molecule: Cn1c(=O)nc2n(-c3ccc(O)cc3)c3ccccc3nc-2c1=O
GI50: 11 µM (inactive)
//
Molecule: CCOC(=O)CCN1C(=O)c2ccc(NC(=O)C(=O)O)cc2S1(=O)=O
GI50: > 100 µM (inactive)
//
Molecule: CC(C)NC(NC(C)C)=C(S(=O)(=O)C(F)(F)C(F)(F)C(F)(F)C(F)(F)F)S(=O)(=O)C(F)(F)C(F)(F)C(F)(F)C(F)(F)F
GI50: > 100 µM (inactive)
//
Molecule: N=C(N)/N=C(\N)Nc1ccc(C(=O)O)cc1
GI50: > 100 µM (inactive)
//
Molecule: CC1=CC(C)(C)N=C2SC(c3ccc(Cl)cc3)=NN12
GI50: 29.2 µM (inactive)
//
Molecule: O=C(O/N=C1\CCCC\C1=C/c1ccccc1)c1ccc([N+](=O)[O-])cc1
GI50: > 100 µM (inactive)
//
Molecule: Cc1cc(C)c(S(=O)(=O)N(CCCN)OCCCON(CCCN)S(=O)(=O)c2c(C)cc(C)cc2C)c(C)c1
GI50: 1.67 µM (inactive)
//
Molecule: COc1cc2c(c(OC)c1OC)-c1ccc(SC)c(=O)cc1[C@@H](NC(=O)c1ccc(OC(C)=O)cc1)CC2
GI50: 0.0326 µM (active)
//
Molecule: Cc1sc2nc3n(c(=O)c2c1C)N=C(c1ccccc1)CS3
GI50: > 100 µM (inactive)
//
Molecule: CC/C=C\C=C/C(=O)N/C=C/CCC
GI50: > 100 µM (inactive)
//
Molecule: COC(=O)C(C(=O)C(=O)Nc1c(Cl)cc([N+](=O)[O-])cc1Cl)c1csc(-n2nc(C3=CCCCC3)cc2-c2ccccc2)n1 (stereo not given)
GI50: 82.8 µM (inactive)
//
Molecule: Cc1cn(CCCCCCOC(=O)NC(CCCNC(N)=O)C(=O)O)c(=O)[nH]c1=O (stereo not given)
GI50: > 100 µM (inactive)
//
Molecule: COc1ccc2[nH]c(C(=O)N3CC(CCl)c4c3cc(N)c3ccccc43)cc2c1 (stereo not given)
GI50: < 0.01 µM (active)
//
Molecule: CN(C)CCN(C)C(=O)c1cccc2cccc(C(=O)O)c12
GI50: > 100 µM (inactive)
//
Molecule: O=c1oc2cc(/N=C/c3ccccc3Cl)ccc2c2ccccc12
GI50: > 100 µM (inactive)
//
Molecule: Cc1oc(N)c(S(=O)(=O)/C(C#N)=C/c2ccccc2[N+](=O)[O-])c1C
GI50: 31.1 µM (inactive)
//
Molecule: O=c1sc2c(s1)SSSSS2
GI50: 21.4 µM (inactive)
//
Molecule: Cc1cc2c(s1)C(N)CC2=O (stereo not given)
GI50: > 100 µM (inactive)
//
Molecule: O=C(c1ccccc1)C(c1ccccc1)C1(O)C(=O)Nc2ccccc21 (stereo not given)
GI50: > 100 µM (inactive)
//
Molecule: COc1ccccc1NC(=O)C1=C(C)NC(C)=C(C(=O)Nc2ccccc2OC)C1c1ccc(C2C(C(=O)Nc3ccccc3OC)=C(C)NC(C)=C2C(=O)Nc2ccccc2OC)cc1
GI50: 2.78 µM (inactive)

Entry source: ChEMBL document CHEMBL1201862
